The measured values listed here are drawn from patent US20210246166A1.

- MEASUREMENT_TARGET: T1, recombinant rat MASP1 active protease (amino acids 302-704, C-terminal His Tag) (rat, UniProt Q8CHN8 302-704)
- T1 sequence: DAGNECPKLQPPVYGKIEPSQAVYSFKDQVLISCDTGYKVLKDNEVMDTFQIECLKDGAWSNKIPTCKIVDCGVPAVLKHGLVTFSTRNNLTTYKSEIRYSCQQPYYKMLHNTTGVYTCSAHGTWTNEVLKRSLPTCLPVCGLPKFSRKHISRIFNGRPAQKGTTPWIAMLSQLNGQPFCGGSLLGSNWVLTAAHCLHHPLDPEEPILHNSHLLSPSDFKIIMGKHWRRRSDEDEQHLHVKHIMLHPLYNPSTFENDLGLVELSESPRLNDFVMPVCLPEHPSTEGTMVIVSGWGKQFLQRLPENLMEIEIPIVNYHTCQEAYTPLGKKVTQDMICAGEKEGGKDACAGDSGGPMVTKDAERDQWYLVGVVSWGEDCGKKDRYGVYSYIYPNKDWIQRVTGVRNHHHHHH
- ASSAY_EXPLANATION: cell-based or functional assay
Numbered stars: 1 amine (or outer) side, 2 acyl side, 3 side chain; on linkers, the order of the positions; unused ones are H or OH. Bridge positions count the residues as written; N and C are the ends. Square brackets hold non-standard residues; d marks the D form. Ends that are not written are not given here. X3 = (1R,3S)‑3‑(Amino)cyclopentanecarboxylic acid, O=C([C@@H]1CC[C@H](N[*:1])C1)[*:2]; Pro(cis-4-CF3) = O=C(O)[C@@H]1C[C@H](C(F)(F)F)CN1; Oic = O=C(O)[C@@H]1C[C@@H]2CCCC[C@@H]2N1; tBuAla = CC(C)(C)C[C@H](N)C(=O)O; Pen = CC(C)(S)[C@H](N)C(=O)O; Nva = CCC[C@H](N)C(=O)O; Abu = CC[C@H](N)C(=O)O; Sar = CNCC(=O)O
READOUT_NAME: rat MASP1 IC50

Consider [Abu]ICSRSLPPICIPD-NH2 (disulfide 3-11; N-terminus assumed; SMILES CC[C@H](N)C(=O)N[C@H](C(=O)N[C@H]1CSSC[C@@H](C(=O)N[C@H](C(=O)N2CCC[C@H]2C(=O)N[C@@H](CC(=O)O)C(N)=O)[C@@H](C)CC)NC(=O)[C@H]([C@@H](C)CC)NC(=O)[C@@H]2CCCN2C(=O)[C@@H]2CCCN2C(=O)[C@H](CC(C)C)NC(=O)[C@H](CO)NC(=O)[C@H](CCCNC(=N)N)NC(=O)[C@H](CO)NC1=O)[C@@H](C)CC) [Example 230: (Abu)-IC+SRSLPPIC+IPD-NH2] . Its measured rat MASP1 IC50 is 370 nM

Record [Sar]ICRRS[tBuAla]PP[Nva][Pen]IP-NH2 (disulfide 3-11; N-terminus assumed; SMILES CCC[C@@H]1NC(=O)[C@@H]2CCCN2C(=O)[C@@H]2CCCN2C(=O)[C@H](CC(C)(C)C)NC(=O)[C@H](CO)NC(=O)[C@H](CCCNC(=N)N)NC(=O)[C@H](CCCNC(=N)N)NC(=O)[C@@H](NC(=O)[C@@H](NC(=O)CNC)[C@@H](C)CC)CSSC(C)(C)[C@@H](C(=O)N[C@H](C(=O)N2CCC[C@H]2C(N)=O)[C@@H](C)CC)NC1=O) [Example 448: ((N-Me)G)-IC+RRS-((tBu)A)-PP-(Nva)-(Pen)+IP-NH2] . Reported rat MASP1 IC50: 5000 nM

Per the record, [Sar]ICSRSLP[Oic]I[Pen]IP[X3]-OH (disulfide 3-11; N-terminus assumed; SMILES CC[C@H](C)[C@H](NC(=O)CNC)C(=O)N[C@H]1CSSC(C)(C)[C@@H](C(=O)N[C@H](C(=O)N2CCC[C@H]2C(=O)N[C@H]2CC[C@@H](C(=O)O)C2)[C@@H](C)CC)NC(=O)[C@H]([C@@H](C)CC)NC(=O)[C@@H]2C[C@@H]3CCCC[C@@H]3N2C(=O)[C@@H]2CCCN2C(=O)[C@H](CC(C)C)NC(=O)[C@H](CO)NC(=O)[C@H](CCCNC(=N)N)NC(=O)[C@H](CO)NC1=O) [Example 449: ((N-Me)G)-IC+SRSLP-(Oic)-I-(Pen)+IP-((1R,3S)-3-(Amino)cyclopentanecarboxylic acid)-OH] has rat MASP1 IC50 of 45 nM

# rat MASP1 IC50 (binder: AICSRS[tBuAla]P[Pro(cis-4-CF3)]ICIPD-NH2 (disulfide 3-11; N-terminus assumed; SMILES CC[C@H](C)[C@H](NC(=O)[C@H](C)N)C(=O)N[C@H]1CSSC[C@@H](C(=O)N[C@H](C(=O)N2CCC[C@H]2C(=O)N[C@@H](CC(=O)O)C(N)=O)[C@@H](C)CC)NC(=O)[C@H]([C@@H](C)CC)NC(=O)[C@@H]2C[C@H](C(F)(F)F)CN2C(=O)[C@@H]2CCCN2C(=O)[C@H](CC(C)(C)C)NC(=O)[C@H](CO)NC(=O)[C@H](CCCNC(=N)N)NC(=O)[C@H](CO)NC1=O) [Example 158: AIC+SRS-((tBu)A)-P-((4-CF3)P)-IC+IPD-NH2] ) is 247 nM
